meta.source: PubChem BioAssay AID2043

# ASSAY TARGET: GTPase HRas, activated mutant (human)
# TEST METHOD NOTES: activated mutant Ras nucleotide binding blockade – biochemical, additional analogs, multiplex flow cytometry, Ki, SAR follow-up (AID 2043)
# SETTINGS: bead-based flow cytometry multiplex, fluorescent GTP binding; measured here: Ki derived from EC50
MEASURE NAME: Ki (nM)
Kindly provide the numeric value in nM only, without the unit symbol.

                                   molecule  measure_name  value
0  CC(C(=O)O)c1cccc(C(=O)c2ccccc2)c1 (stereo not drawn)            Ki     30
1      O=C(C#Cc1ccccc1)c1ccccc1[N+](=O)[O-]            Ki    560

Now, please, on to the next molecule.
In plain terms, `O=C(C#Cc1ccccc1)c1ccc(F)cc1` has a documented Ki of 1340
